Tested on: polyclonal antibody ab6982
Test: Epitope mapping of polyclonal antibody ab6982 against cyclic peptides of Ad5 fiber and hexon (peptide array)
Format: binding, rabbits
Details: cyclic peptides of fiber protein (clusters 1-7)
Excerpt: Polyclonal antibody ab6982 (Abcam) was generated by immunizing rabbits with purified AdV. It reacts with all capsid proteins of Ad5 including hexon, fiber and penton. It was shown that the antibody neutralizes Ad5 infection in a bioassay at 1000 adenovirus 5 particles/ml, a 50% inactivation of the adenovirus can be achieved at a 1/25,000 dilution of the antibody. […]
For each record, check the reported antibody binding signal ranking from the microarray experiment: if it is below 70 write rule met, else write rule not met.

substance | assigned_category
RDTDMFGQIADNNQ [SEQ ID NO: 2037] | rule not met
KRVLEPLGLVESPV [SEQ ID NO: 2012] | rule not met
PVDQSPQEPDSSSG [SEQ ID NO: 1991] | rule met
MASHKDDEEKFFPM [SEQ ID NO: 1989] | rule met
204 (NYINEIFATSSYT) [compound 204] | rule not met
PYLRYHADAEFQER [SEQ ID NO: 2013] | rule not met
175 (AYSMSFS) [compound 175] | rule not met

Attribution: patent US20250213707A1
